test: Hemolytic activity against RBC (unknown origin) at 32 ug/ml; type: ADME, cell-based, Erythrocyte; details: red blood cells (erythrocytes), at 32 µg/mL, read-out: Activity
VALUE_TYPE: hemolysis at 32 ug/ml

Exam item: For the compound O=c1c(O[C@@H]2O[C@H](CO)[C@@H](O)[C@H](O)[C@H]2O)c(-c2ccc(O)c(O)c2)oc2cc(O)cc(O)c12 , what hemolysis at 32 ug/ml is on record?
Marked response: > 10%

Hello, the source for this data is ChEMBL document CHEMBL4819037, in case you need it.
